Every entry's value here was drawn from patent US20190060261A1.

Tested on: Pseudomonas aeruginosa ATCC 9027
Assay: Minimal inhibition concentration (MIC), microdilution method
Type: cell-based
Conditions: Mueller-Hinton II Bouillon, 25 mM MES-buffer, 37° C., no growth after 24 h and 72 h
Description: The antimicrobial activity of different substances was examined and compared to perillic acid in vitro using the microdilution method adapted from DIN EN ISO 20776-1:2006. […] All experiments were done in 96-well plates in a final volume of 200 μL. […] Plates were evaluated after 24 h and 72 h, respectively. […]
ENDPOINT: MIC [A to D] Pseudomonas aeruginosa

[[record]]
compound = "CCCCCCCCCCC(O)CO (stereo not shown) [Dodecane-1,2-diol]"
measurement_target = "Pseudomonas aeruginosa ATCC 9027"
value_observed = "D (MIC<0.1% (w/v))"

[[record]]
compound = "C=C(C)C1CC=C(C(=O)[O-])CC1.[Na+] (stereo not shown) [Sodium perillate]"
measurement_target = "Pseudomonas aeruginosa ATCC 9027"
value_observed = "B (MIC=0.5-1% (w/v))"

[[record]]
compound = "C=C(C)[C@H]1CC=C(C(=O)O)CC1 [R-Perillic acid]"
measurement_target = "Pseudomonas aeruginosa ATCC 9027"
value_observed = "B (MIC=0.5-1% (w/v))"

[[record]]
compound = "O=C([O-])c1ccccc1.[Na+] [Sodium benzoate]"
measurement_target = "Pseudomonas aeruginosa ATCC 9027"
value_observed = "B (MIC=0.5-1% (w/v))"


q: I'm curious: which MIC [A to D] Pseudomonas aeruginosa was measured for C=C(C)[C@@H]1CC=C(C(=O)O)CC1 [S-Perillic acid] tested on Pseudomonas aeruginosa ATCC 9027?
a: B (MIC=0.5-1% (w/v))

q: Provide value of MIC [A to D] Pseudomonas aeruginosa for this record tested with Pseudomonas aeruginosa ATCC 9027: O=C(O)c1ccccc1O [Salicylic acid]
a: D (MIC<0.1% (w/v))

---

tested on: Aspergillus brasiliensis ATCC®16404; experiment: Minimal inhibition concentration (MIC), microdilution method; format: cell-based; conditions: potato dextrose medium, 25 mM MES-buffer, 25° C., no growth after 24 h and 72 h
ENDPOINT: MIC [A to D] Aspergillus brasiliensis

Worked cases, answers included:
[[record]]
compound = "O=C([O-])c1ccccc1.[Na+] [Sodium benzoate]"
value_observed = "A (MIC>1% (w/v))"

[[record]]
compound = "CC(=O)C1C(=O)C=C(C)OC1=O (centres unmarked) [Dehydroacetic acid]"
value_observed = "D (MIC<0.1% (w/v))"

[[record]]
compound = "C/C=C/C=C/C(=O)[O-].[K+] [Potassium sorbate]"
value_observed = "A (MIC>1% (w/v))"

[[record]]
compound = "CCCCCCCCCCC(O)CO (centres unmarked) [Dodecane-1,2-diol]"
value_observed = "D (MIC<0.1% (w/v))"

[[record]]
compound = "C=C(C)C1CC=C(C(=O)[O-])CC1.[Na+] (centres unmarked) [Sodium perillate]"
value_observed = "D (MIC<0.1% (w/v))"


q: Fill in: MIC [A to D] Aspergillus brasiliensis of CCCCCCCCC(O)CO (centres unmarked) [Decane-1,2-diol] is ___
a: D (MIC<0.1% (w/v))

q: Tell me the measured MIC [A to D] Aspergillus brasiliensis of C=C(C)[C@H]1CC=C(C(=O)O)CC1 [R-Perillic acid] , please.
a: D (MIC<0.1% (w/v))

q: Which value of MIC [A to D] Aspergillus brasiliensis has been reported for C=C(C)[C@@H]1CC=C(C(=O)O)CC1 [S-Perillic acid] in the records?
a: D (MIC<0.1% (w/v))

---

test system: Stapyhlococcus aureus ATCC®6538; experiment: Minimal inhibition concentration (MIC), microdilution method; assay type: cell-based, Staphylococcus aureus; details: Staphylococcus aureus, ATCC6538; Mueller-Hinton II Bouillon, 25 mM MES-buffer, 37° C., no growth after 24 h and 72 h; read-out: MIC [A to D] Staphylococcus aureus
ENDPOINT: MIC

Some solved cases for reference:
[[record]]
molecule = "OCc1ccccc1 [Benzyl Alcohol, reference compound]"
measurement_target = "Stapyhlococcus aureus ATCC®6538"
endpoint = "MIC"
value_observed = "5000 to 10000 µg/mL"

[[record]]
molecule = "OCCc1ccccc1 [2-Phenylethanol, reference compound]"
measurement_target = "Stapyhlococcus aureus ATCC®6538"
endpoint = "MIC"
value_observed = "5000 to 10000 µg/mL"

[[record]]
molecule = "COc1ccc(C(=O)O)cc1"
measurement_target = "Stapyhlococcus aureus ATCC®6538"
endpoint = "MIC"
value_observed = "1000 to 5000 µg/mL"


q: Report MIC for CC(=O)CCC(=O)O please.
a: 1000 to 5000 µg/mL

---

test system: Candida albicans ATCC®10231; test: Minimal inhibition concentration (MIC), microdilution method; assay type: cell-based; conditions: Candida albicans, ATCC10231; yeast peptone dextrose, 25 mM MES-buffer, 28° C., no growth after 24 h and 72 h; read-out: MIC [A to D] Candida albicans
ENDPOINT: MIC

[[record]]
molecule = "OCCc1ccccc1 [2-Phenylethanol, reference compound]"
endpoint = "MIC"
value_observed = "5000 to 10000 µg/mL"

[[record]]
molecule = "COc1ccc(C(=O)O)cc1 [p-Anisic acid]"
endpoint = "MIC"
value_observed = "5000 to 10000 µg/mL"

[[record]]
molecule = "OCc1ccccc1 [Benzyl Alcohol, reference compound]"
endpoint = "MIC"
value_observed = "5000 to 10000 µg/mL"


Let us move to another entry and its MIC.
q: Look at this molecule and give its reported MIC. O=C(O)c1ccccc1O [Salicylic acid]
a: 1000 to 5000 µg/mL
